Values from patent US20110009311A1

# tested_target: α3β1 integrin (endogenous on human cells: MDA-MB-435 breast carcinoma, HUVEC, HDME, OH-1 SCLC) (human, UniProt P26006 33-1051; P05556 21-798)
# Sequence (P26006 33-1051, chain 1 of 2): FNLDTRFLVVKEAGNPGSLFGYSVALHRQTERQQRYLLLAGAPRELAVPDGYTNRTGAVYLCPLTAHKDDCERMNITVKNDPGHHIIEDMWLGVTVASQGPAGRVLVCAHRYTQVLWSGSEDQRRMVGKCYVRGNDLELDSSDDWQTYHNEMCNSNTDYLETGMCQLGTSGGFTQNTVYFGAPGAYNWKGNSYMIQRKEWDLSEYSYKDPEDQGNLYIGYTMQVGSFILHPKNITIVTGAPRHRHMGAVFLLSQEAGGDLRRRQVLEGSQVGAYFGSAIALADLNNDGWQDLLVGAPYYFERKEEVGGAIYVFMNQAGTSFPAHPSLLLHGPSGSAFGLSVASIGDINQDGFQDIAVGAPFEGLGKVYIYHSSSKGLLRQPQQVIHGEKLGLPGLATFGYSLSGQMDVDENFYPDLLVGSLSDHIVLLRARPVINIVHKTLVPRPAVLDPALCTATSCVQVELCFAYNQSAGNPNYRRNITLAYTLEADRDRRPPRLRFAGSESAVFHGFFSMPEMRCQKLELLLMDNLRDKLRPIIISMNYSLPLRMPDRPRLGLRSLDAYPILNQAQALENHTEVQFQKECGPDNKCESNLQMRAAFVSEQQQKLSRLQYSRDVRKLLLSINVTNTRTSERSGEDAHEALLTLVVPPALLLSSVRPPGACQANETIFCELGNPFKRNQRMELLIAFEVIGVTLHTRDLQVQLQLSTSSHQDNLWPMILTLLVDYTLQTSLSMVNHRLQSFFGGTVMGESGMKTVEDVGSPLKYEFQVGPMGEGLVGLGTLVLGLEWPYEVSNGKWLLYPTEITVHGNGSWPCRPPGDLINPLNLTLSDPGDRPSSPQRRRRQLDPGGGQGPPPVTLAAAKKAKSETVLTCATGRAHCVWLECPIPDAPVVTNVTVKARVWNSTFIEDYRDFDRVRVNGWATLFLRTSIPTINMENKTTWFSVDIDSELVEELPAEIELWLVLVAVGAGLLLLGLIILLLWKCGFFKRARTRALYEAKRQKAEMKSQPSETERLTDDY
# Sequence (P05556 21-798, chain 2 of 2): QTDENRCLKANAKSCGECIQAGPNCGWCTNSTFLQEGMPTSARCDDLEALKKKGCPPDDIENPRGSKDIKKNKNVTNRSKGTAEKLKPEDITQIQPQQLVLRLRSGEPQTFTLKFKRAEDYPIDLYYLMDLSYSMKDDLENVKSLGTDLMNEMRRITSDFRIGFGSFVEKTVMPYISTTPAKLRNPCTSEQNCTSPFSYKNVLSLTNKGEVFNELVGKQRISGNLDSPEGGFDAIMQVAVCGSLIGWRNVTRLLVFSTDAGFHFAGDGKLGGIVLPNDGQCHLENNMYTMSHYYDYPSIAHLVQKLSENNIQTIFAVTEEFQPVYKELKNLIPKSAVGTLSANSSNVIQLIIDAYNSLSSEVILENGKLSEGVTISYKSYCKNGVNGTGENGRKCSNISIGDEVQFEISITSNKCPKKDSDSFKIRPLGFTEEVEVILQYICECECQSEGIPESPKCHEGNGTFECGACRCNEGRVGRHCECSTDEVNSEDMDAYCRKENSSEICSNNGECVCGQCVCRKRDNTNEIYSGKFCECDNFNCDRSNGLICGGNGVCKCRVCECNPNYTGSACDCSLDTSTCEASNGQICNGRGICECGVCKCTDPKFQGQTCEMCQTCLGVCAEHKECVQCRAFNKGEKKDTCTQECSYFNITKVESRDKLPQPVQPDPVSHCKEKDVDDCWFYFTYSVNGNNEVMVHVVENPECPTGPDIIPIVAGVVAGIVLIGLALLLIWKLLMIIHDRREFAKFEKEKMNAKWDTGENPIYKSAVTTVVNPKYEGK
# experiment_summary: cell-based or functional assay
Binary call on IC50 (µM), inhibition of MDA-MB-435 cell adhesion to immobilized peptide 678 with cut-off 5 µM: strictly below means YES, and equality or higher means NO.

binder="FQGVLQNVAFVF (also called control peptide 690) [peptide 690]" assigned_label=NO
binder="FQGVLQNVKFVF [peptide 702]" assigned_label=NO
binder="FAGVLQNVRFVF [peptide 696]" assigned_label=YES
binder="FQGVLQNVRFVA [peptide 693]" assigned_label=NO
binder="FQGVLANVRFVF [peptide 687]" assigned_label=YES

Query: Hello, is IC50 (µM), inhibition of MDA-MB-435 cell adhesion to immobilized peptide 678 of the following binder strictly smaller than 5 µM? FQGVLQNVHFVF [peptide 694]
Response: NO

Query: Find out if reported IC50 (µM), inhibition of MDA-MB-435 cell adhesion to immobilized peptide 678 for FQGVLQNVRAVF [peptide 692] is less than 5 µM
Response: NO

Query: hey, is IC50 (µM), inhibition of MDA-MB-435 cell adhesion to immobilized peptide 678 for FQGVLQNVRFVF [TSP1 peptide 678] lower than 5 µM or not?
Response: YES
